System: Plasmodium falciparum
Assay: Antiplasmodial activity against chloroquine-sensitive Plasmodium falciparum 3D7 after 72 hrs by SYBR Green-1 staining-based fluorescence assay
Type: functional, organism-based
Details: 3D7, 72 h
readout type: pIC50
Answers are plain numbers, as −log10 of the molar value.

Recorded results for 2 compounds are shown here.
| smiles representation | pIC50 |
| --- | --- |
| CCN(CC)CCNC(=O)[C@H](C)Nc1ccnc2cc(Cl)ccc12 | 7.45 |
| CN1CCN(C(=O)[C@H](CO)Nc2ccnc3cc(Cl)ccc23)CC1 | 6.93 |

Need pIC50 for each of these compounds.
1. CN1CCN(C(=O)CCNc2ccnc3cc(Cl)ccc23)CC1
2. CN1CCN(C(=O)[C@H](Cc2ccccc2)Nc2ccnc3cc(Cl)ccc23)CC1
3. C[C@H](Nc1ccnc2cc(Cl)ccc12)C(=O)NCCCN(C)C

Result ::
7.45
6.96
6.85

Need pIC50 for each of these compounds.
1. C[C@H](Nc1ccnc2cc(Cl)ccc12)C(=O)N1CCN(C)CC1
2. CN1CCN(C(=O)C[C@H](Cc2ccccc2)Nc2ccnc3cc(Cl)ccc23)CC1

Result ::
7.13
7.72

Need pIC50 for each of these compounds.
1. CC[C@H](C)[C@H](Nc1ccnc2cc(Cl)ccc12)C(=O)N1CCN(C)CC1
2. C[C@H](Nc1ccnc2cc(Cl)ccc12)C(=O)NCCN1CCCCC1
3. CC(C)[C@H](Nc1ccnc2cc(Cl)ccc12)C(=O)N1CCN(C)CC1
4. CN1CCN(C(=O)CCCNc2ccnc3cc(Cl)ccc23)CC1

Result ::
[7.08, 7.19, 6.57, 7.19]
